This collection of values is drawn from patent US20220064276A1.

# system-tested: T1, mouse LTBP1-proTGFβ1 complex (mouse, UniProt Q8CG19 339-1712; P04202 30-390)
# T1 construct: Exemplary entries; In the cell assays expressed from mouse LTBP1S and mouse proTGFb1 plasmids in LN229 cells; also called Mo LTBP1-proTGFβ1; MuLTBP1-ProTGFb1
# T1 sequence (Q8CG19 339-1712 limits assumed, chain 1 of 2): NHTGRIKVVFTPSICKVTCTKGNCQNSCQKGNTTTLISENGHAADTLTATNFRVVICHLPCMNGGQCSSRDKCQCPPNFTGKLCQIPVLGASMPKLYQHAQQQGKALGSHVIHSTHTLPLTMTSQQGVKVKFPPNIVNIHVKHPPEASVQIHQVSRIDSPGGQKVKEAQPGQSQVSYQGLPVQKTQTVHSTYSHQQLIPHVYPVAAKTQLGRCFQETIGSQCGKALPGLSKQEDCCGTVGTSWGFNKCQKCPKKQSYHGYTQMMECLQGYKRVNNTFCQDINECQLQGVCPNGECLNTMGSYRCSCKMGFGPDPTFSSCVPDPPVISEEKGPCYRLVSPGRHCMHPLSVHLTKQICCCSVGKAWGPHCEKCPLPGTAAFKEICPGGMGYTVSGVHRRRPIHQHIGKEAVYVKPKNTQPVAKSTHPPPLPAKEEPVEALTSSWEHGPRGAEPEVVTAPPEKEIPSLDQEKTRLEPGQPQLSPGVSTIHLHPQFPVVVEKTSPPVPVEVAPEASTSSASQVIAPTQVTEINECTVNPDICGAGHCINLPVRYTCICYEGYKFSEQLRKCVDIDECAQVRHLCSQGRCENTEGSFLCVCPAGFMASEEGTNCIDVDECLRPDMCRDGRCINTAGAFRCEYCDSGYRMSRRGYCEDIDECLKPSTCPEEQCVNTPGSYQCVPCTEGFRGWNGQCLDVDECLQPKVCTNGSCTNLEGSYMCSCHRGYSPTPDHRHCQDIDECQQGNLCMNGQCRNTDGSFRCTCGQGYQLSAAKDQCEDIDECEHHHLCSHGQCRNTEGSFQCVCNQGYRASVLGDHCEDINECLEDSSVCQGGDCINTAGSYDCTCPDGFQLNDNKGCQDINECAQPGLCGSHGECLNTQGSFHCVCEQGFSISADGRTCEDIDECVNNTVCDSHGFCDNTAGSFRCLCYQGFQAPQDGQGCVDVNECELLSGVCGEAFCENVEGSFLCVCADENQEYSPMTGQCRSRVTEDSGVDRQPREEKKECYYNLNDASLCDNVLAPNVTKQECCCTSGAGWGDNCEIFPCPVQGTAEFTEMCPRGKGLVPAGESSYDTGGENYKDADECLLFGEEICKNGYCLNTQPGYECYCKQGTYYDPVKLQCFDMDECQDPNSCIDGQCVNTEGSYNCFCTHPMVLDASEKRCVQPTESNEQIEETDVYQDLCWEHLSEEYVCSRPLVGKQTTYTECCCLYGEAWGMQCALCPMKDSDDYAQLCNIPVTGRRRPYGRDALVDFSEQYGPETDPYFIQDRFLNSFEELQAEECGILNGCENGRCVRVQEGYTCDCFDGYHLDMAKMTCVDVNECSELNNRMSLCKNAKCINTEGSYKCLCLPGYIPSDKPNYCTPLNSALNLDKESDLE
# T1 sequence (P04202 30-390 limits assumed, chain 2 of 2): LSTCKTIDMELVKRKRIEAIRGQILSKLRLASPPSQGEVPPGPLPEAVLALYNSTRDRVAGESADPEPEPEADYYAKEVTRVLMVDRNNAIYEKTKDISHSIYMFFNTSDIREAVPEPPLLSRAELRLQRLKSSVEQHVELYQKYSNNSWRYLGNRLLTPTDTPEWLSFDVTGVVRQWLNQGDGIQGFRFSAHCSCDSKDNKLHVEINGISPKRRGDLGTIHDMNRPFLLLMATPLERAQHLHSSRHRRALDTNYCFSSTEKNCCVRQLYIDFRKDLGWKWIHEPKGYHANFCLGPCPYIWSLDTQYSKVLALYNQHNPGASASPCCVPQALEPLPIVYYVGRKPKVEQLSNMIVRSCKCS
# assay-text: Octet BLI, IgG captured
quantity-measured: Kd (nM)
Respond numerically; units are nM and should not be typed.

Request: For the binder shown here, SR-AB41 (antibody, IgG1, V domains shown, Cycle 3, lineage SR-AB23) VH: QVQLVESGGGVVQPGRSLRLSCAASGFTFRSYVMHWVRQAPGKGLEWVAVISHEGSLKYYADSVKGRFTISRDNSKNTLYLQMNSLRAEDTAVYYCARPRIAARRGGFGYWGQGTLVTVSS VL: NFMLTQPHSVSESPGKTVTISCTRSSGNIDNNYVQWYQQRPGSSPTTVIYEDNQRPSGVPDRFSGSIDSSSNSASLTISGLKTEDEADYYCQSYDYDNQAVVFGGGTKLTVL , give the reported Kd.
Result: 0.404

Request: Could you tell me which Kd is on file for SR-AB44 (antibody, IgG1, V domains shown, Cycle 3, lineage SR-AB23) VH: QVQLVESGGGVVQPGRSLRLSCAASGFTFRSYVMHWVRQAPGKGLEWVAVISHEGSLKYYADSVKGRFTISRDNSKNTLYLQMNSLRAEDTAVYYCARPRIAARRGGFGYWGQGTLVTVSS VL: NFMLTQPHSVSESPGKTVTISCTRSHGNIDDNYVQWYQQRPGSSPTTVIYEDNVRPSGVPDRFSGSIDSSSNSASLTISGLKTEDEADYYCQSYDSDNQLVVFGGGTKLTVL ?
Result: 0.21

Request: // Kd lookup, key: SR-AB62 (antibody, IgG1, V domains shown, Cycle 3, lineage SR-AB24) VH: QLQLQESGPGLAKPSETLSLTCTVSGGSIRSSSYYWGWIRQPPGKGLEWIGSISYSATTYYNPSLKSRVTISVDTSKNQFSLKLSSVTAADTAVYYCASDPSYDSAAGMDVWGQGTTVTVSS VL: DIQMTQSPSSLSASVGDRVTITCRASKVISSYLNWYQQKPGKAPKLLIYYASSLQSGVPSRFSGSGSGTDFTLTISSLQPEDFATYYCQQSNDWPFTFGGGTKVEIK
Result: 0.609
